Cited source for all entries: paper PMC5360466

# Test system: RRV
# Method: RRV binding
# Assay type: cell-based
# Measurement Setup: mouse cholangiocytes pretreated with 1 mM peptide, versus serum-free media; Fig. 3B, 4C, 8C

Sequence Record	Measured Target	effect on RRV binding
MRTRVSGLY	RRV	no effect
VRTRISGLY	RRV	no effect
KTKIDRSTQISPNTLPD [reference compound]	RRV	no effect
FSGIKSTIDAAKSMATNVMKKFKK [reference compound]	RRV	no effect
